Numbers sourced from patent US20160207996A1.

- STUDY SYSTEM: T1, hNav1.7-loopA3-llama Fc fusion (human)
- T1 construct: also called hNav1.7-loopA3-llFc; loopA3-llamaFc chimera
- T1 chain: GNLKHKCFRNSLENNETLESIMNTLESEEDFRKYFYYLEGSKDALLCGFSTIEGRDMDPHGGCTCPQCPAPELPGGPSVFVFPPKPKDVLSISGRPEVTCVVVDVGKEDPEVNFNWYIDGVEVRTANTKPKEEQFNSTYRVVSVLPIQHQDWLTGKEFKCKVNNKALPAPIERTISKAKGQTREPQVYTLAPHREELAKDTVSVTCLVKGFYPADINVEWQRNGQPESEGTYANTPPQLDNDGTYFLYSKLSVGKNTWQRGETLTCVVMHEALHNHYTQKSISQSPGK
- TEST PROTOCOL: Biacore SPR, antigen on CM5 chip, mAb in flow

BINDER	Kd / nM
4F6 (antibody, human IgG1, V domains shown) VH: QLQLVESGGGLVQPGGSLRLSCAASGFTFDDYAMSWVRQAPGKGLEWVSAISWNGGSTYYAESMKGRFTISRDNAKNTLYLQMNSLKSKDTAVYYCARRRYGLGSEYDYWGQGTQVTVSS VL: HSAVTQPSAVSVSLGQTARITCQGTNLRSSYVHWYQQMPGQAPVLVIYRDSERPSGIPERFSGSSSGGTATLAISGAQAEDEADYYCQSAHRSESAVFGGGTHLTVLG	5.1
4H6 (antibody, human IgG1, V domains shown) VH: QVQLQESGPGLVKPSQTLSLTCTVSGGSITNYGWSWIRQPPGKGLEWMGVIAYDGSTYYSPSLKSRTSISRDTSKNQFSLQLSSVTPEDTAVYYCASAMVTTSSPWVKTFGAWGQGTQVTVSS VL: QAGLTQPPSVSGSPGKTVTISCAGTSSDVGYGNYVSWYQQLPGMAPKLLLYSVNKRASGIADRFSGSKSGNTASLTISGLQSEDEADYYCGCYDSSLSTPVFGGGTKLTVLG	0.12
3E1 (antibody, human IgG1, V domains shown) VH: EVQVQESGGGLVQPGGSLRLSCAASGFTFSSYWMYWVRQAPGKGLEWVSAINTGGGSTYYADSVKGRFTISRDNAKNTLYLQMNSLKPEDTALYYCARGPGYSGKYIEGWAYWGQGTQVTVSS VL: DIVMTQSPSSVTASVGEKVTINCKSSQSVVSGSKQKSYLNWYQQRPGQSPRLLIYYASTQESGIPDRFSGSGSTTDFTLTISSVQPEDAAVYYCQQAYSAPYSFGSGTRLEIK	0.2
4F7 (antibody, human IgG1, V domains shown) VH: QVQLQESGPGLVKPSQTLSLTCTVSGGSITTSFYAWSWIRQPPGKGLEWMGVIAYDGRTFYSPSLKSRTHISRDTSKNQFSLQLSSVTPEDTAVYYCARGGVVAWSYDYWGQGTQVTVSS VL: SYELTQSPSVSVALRQTAKITCGGNDIGSKSTQWYQQKAGQAPVLVIYADSRRPSGIPERFSGSNSGNTATLTISGAQAEDEADYYCQVWDSRADAAVFGGGTHLTVLG	0.084
